assay.system: Nampt (nicotinamide phosphoribosyltransferase) (UniProt P43490 P43490:1-491)
Sequence (P43490 whole entry, one chain of several): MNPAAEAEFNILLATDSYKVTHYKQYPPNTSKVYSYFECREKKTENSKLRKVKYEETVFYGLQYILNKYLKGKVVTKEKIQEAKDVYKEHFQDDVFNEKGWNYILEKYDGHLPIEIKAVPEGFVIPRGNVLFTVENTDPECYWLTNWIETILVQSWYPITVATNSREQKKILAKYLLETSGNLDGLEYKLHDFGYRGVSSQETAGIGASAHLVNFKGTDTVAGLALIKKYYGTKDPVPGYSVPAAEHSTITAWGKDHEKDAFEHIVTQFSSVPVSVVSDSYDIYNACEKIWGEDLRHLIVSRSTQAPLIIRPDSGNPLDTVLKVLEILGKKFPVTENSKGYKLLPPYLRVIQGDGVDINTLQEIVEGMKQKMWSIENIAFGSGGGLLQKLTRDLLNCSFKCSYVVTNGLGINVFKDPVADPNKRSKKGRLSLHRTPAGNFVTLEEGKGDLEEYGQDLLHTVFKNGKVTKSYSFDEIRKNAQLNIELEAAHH
experiment.notes: SPR; 200 nM Nampt
condition.notes: tags: AdipoGen AG-40A-0031; chain copies: 2
measured.parameter: binding result

Field: example entries. Status: answers known.
INSERT INTO measurements (binder, measured_result) VALUES
  ('G27 (ssDNA) DNA: CGTACGGAATTCGCTAGCGGGTGGAGTACGTGGGGGTCATCCTGTGTGGGATCCGAGCTCCACGTG', 'binds'),
  ('G32 (ssDNA) DNA: CGTACGGAATTCGCTAGCGTGGACTGGCGGAAATCTTGGTATGCCCATGGATCCGAGCTCCACGTG', 'binds'),
  ('G26 (ssDNA) DNA: CGTACGGAATTCGCTAGCATCGGGTGCAGAGTCGGAGCTAACGGCAGCGGATCCGAGCTCCACGTG', 'binds'),
  ('G54 (ssDNA) DNA: CGTACGGAATTCGCTAGCGTGGCGGGGCGCGGGTGCCGGAGTTGATGTGGATCCGAGCTCCACGTG', 'binds'),
  ('G21 (ssDNA) DNA: CGTACGGAATTCGCTAGCGGGTTCGGGACGGATGAACGTGATAGCTGAGGATCCGAGCTCCACGTG', 'binds');

Requested field: binding result. Item: G4 (ssDNA) DNA: CGTACGGAATTCGCTAGCGTGATGTGGGGGTACGCTCGTGGCAGGCTTGGATCCGAGCTCCACGTG
binds

Requested field: binding result. Item: G12 (ssDNA) DNA: CGTACGGAATTCGCTAGCGGGTGCCGTGGCACGAGGCCGTGGTCCAGGGGATCCGAGCTCCACGTG
binds
